# study.system: EGFR (mutated) 695-1022, T790M, C797S, L858R (Homo sapiens (Human), UniProt P00533, C797S/L858R/T790M)
# Sequence (P00533 695-1022 T790M/C797S/L858R): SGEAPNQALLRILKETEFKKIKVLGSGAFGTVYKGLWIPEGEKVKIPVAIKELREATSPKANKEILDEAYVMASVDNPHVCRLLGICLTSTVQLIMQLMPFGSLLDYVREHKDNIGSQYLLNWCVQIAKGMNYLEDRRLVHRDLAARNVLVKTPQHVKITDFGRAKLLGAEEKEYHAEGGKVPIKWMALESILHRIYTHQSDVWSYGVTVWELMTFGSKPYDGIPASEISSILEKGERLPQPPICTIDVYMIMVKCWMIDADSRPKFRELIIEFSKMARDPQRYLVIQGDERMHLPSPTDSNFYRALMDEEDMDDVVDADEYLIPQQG
# measurement.notes: Biochemical EGFR inhibition assay (TR-FRET, poly-GT substrate), EGFR T790M C797S L858R
# test.context: read-out: LR_TM_CS (100 μM ATP) IC50; 100 μM ATP
readout.kind: pIC50
Give bare numbers, as −log10 of the molar value.

[
  {
    "compound": "CN1CCC(c2ccc3c(c2)[nH]/c(=N\\C(=O)c2ccnc(-c4cnn(C)c4)c2)n3C2CCCC2)CC1",
    "pIC50": 7.76
  },
  {
    "compound": "Cn1cc(-c2cc(C(=O)/N=c3\\[nH]c4ccccc4n3[C@H]3CC[C@H](O)CC3)ccn2)cn1",
    "pIC50": 7.40
  },
  {
    "compound": "CN(C)Cc1cccc(-c2cc(C(=O)/N=c3\\[nH]c4ccccc4n3[C@H]3CC[C@@H](O)CC3)ccn2)c1",
    "pIC50": 7.73
  },
  {
    "compound": "O=C(/N=c1\\[nH]c2ccccc2n1[C@H]1CC[C@@H](O)CC1)c1ccnc(-c2cnn3cccnc23)c1",
    "pIC50": 8.24
  },
  {
    "compound": "Cn1cc(-c2cc(C(=O)/N=c3\\[nH]c4ccccc4n3C3CCC3)ccn2)cn1",
    "pIC50": 6.99
  },
  {
    "compound": "CC(C)(O)Cn1/c(=N/C(=O)c2ccnc(-c3cnn4ccccc34)c2)[nH]c2ccccc21",
    "pIC50": 7.11
  },
  {
    "compound": "Cn1cc(-c2cc(C(=O)/N=c3\\[nH]c4ccccc4n3[C@H]3CC[C@@H](O)C3)ccn2)cn1",
    "pIC50": 6.74
  },
  {
    "compound": "Cc1c(-c2cc(C(=O)/N=c3\\[nH]c4cc(N5CCN(C)CC5)ccc4n3CC(C)(C)O)ccn2)cnn1C",
    "pIC50": 6.95
  }
]

Give pIC50 for each of the items listed below.
1. CN1CCC(c2ccc3c(c2)[nH]/c(=N\C(=O)c2ccnc(-c4cnn(C)c4)c2)n3CC(C)(C)O)CC1
2. CN(C)Cc1ccc2c(c1)[nH]/c(=N\C(=O)c1ccnc(-c3cnn(C)c3)c1)n2CC(C)(C)O
3. Cn1cc(-c2cc(C(=O)/N=c3\[nH]c4cc(C5CCCOC5)ccc4n3CC(C)(C)O)ccn2)cn1 (stereo not shown)
4. Cn1cc(-c2cc(C(=O)/N=c3\[nH]c4ccccc4n3C3CCCCC3)ccn2)cn1
5. CN1CCC(c2ccc3c(c2)[nH]/c(=N\C(=O)c2ccnc(-c4cccnc4)c2)n3C2CCCC2)CC1

7.56
6.72
7.03
7.98
7.56

Below are some compounds; for each one, tell me its pIC50.
1. CN1CCC(c2ccc3c(c2)[nH]/c(=N\C(=O)c2ccnc(-c4cnn(C)c4)c2)n3CC(C)(C)O)CC1=O (stereo not shown)
2. O=C(/N=c1\[nH]c2ccccc2n1C1CCCC1)c1ccnc(-c2cccnc2)c1
3. Cn1cc(-c2cc(C(=O)/N=c3\[nH]c4ccccc4n3CCC(C)(C)O)ccn2)cn1

1: 7.10; 2: 7.17; 3: 6.77
